Test system: HCI01 (cells of a triple-negative basal-like breast cancer xenograft);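 further: PDX cells carrying CMV promoter-driven luciferase, viability read as total photon flux per second by IVIS imaging following D-luciferin, vehicle control 0.1% DMSO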
Experiment: cell viability (% of vehicle); higher = less cytotoxic
Settings: 10 µM; 72 h
Field: cell viability. Provide a value for each of the compounds that follow.

Examples from the recorded data:
>  <compound>
CN1CCN(c2ccc3c(c2)NC(=C2C(=O)N=c4cccc(F)c4=C2N)N3)CC1 [Dovitinib (TKI-258, CHIR-258)]

>  <observationType>
cell viability

>  <experimentalValue>
92.5

$$$$
>  <compound>
NC(=O)Cc1cccc(C(=O)c2ccccc2)c1N [Nepafenac]

>  <observationType>
cell viability

>  <experimentalValue>
117

$$$$
>  <compound>
CC(C)OC(=O)C(C(=O)OC(C)C)=C1SC=CS1 [Malotilate]

>  <observationType>
cell viability

>  <experimentalValue>
108

$$$$
>  <compound>
O=S(=O)([O-])CCSSCCS(=O)(=O)[O-].[Na+].[Na+] [Dimesna]

>  <observationType>
cell viability

>  <experimentalValue>
111

$$$$
>  <compound>
O=c1ccc2ccccc2o1 [Coumarin]

>  <observationType>
cell viability

>  <experimentalValue>
110

$$$$

I'm hoping you can list cell viability for every compound here, please.
1. CC(C)C(=O)Nc1ccc([N+](=O)[O-])c(C(F)(F)F)c1 [Flutamide]
2. CCC1OC(=O)C(C)C(OC2CC(C)(OC)C(O)C(C)O2)C(C)C(OC2OC(C)CC(N(C)C)C2O)C(C)(OC)CC(C)C(=O)C(C)C(O)C1(C)O (stereo not drawn) [Clarithromycin]
3. CNCC(O)c1ccc(O)c(O)c1.Cl (stereo not drawn) [Epinephrine HCl]
4. Nc1nc(=O)c2nc(CNc3ccc(C(=O)NC(CCC(=O)O)C(=O)O)cc3)cnc2[nH]1 (stereo not drawn) [Folic acid]

-- reply
[136, 112, 102, 103]

I'm hoping you can list cell viability for every compound here, please.
1. CCCN1CCCCC1C(=O)Nc1c(C)cccc1C.Cl.O (stereo not drawn) [Ropivacaine hydrochloride monohydrate]
2. O=C(O)C1=CC(=NNc2ccc([O-])c(C(=O)[O-])c2)C=CC1=O.[Na+].[Na+] [Olsalazine Sodium]
3. Nc1cccc2c1CN(C1CCC(=O)NC1=O)C2=O (stereo not drawn) [Lenalidomide (CC-5013)]
4. CN(C)CCN1C(=O)c2cccc3cc(N)cc(c23)C1=O [Amonafide]
5. Cc1ncc([N+](=O)[O-])n1CC(O)CCl (stereo not drawn) [Ornidazole]
6. Nc1nc(F)nc2c1ncn2C1OC(CO)C(O)C1O (stereo not drawn) [Fludarabine]

-- reply
[86.9, 123, 111, 103, 94.9, 131]

I'm hoping you can list cell viability for every compound here, please.
1. CC(=O)Nc1cccc(-n2c(=O)n(C3CC3)c(=O)c3c(Nc4ccc(I)cc4F)n(C)c(=O)c(C)c32)c1
2. O=c1ccc2ccc(OCCCCN3CCN(c4cccc5sccc45)CC3)cc2[nH]1 [Brexpiprazole]
3. Clc1ccc2nsnc2c1NC1=NCCN1 [Tizanidine]
4. CCC1C(=O)N(C)c2cnc(Nc3ccc(C(=O)NC4CCC(N5CCN(CC6CC6)CC5)CC4)cc3OC)nc2N1C(C)C (stereo not drawn) [BI6727 (Volasertib)]

-- reply
1. 103
2. 136
3. 97.7
4. 82.6

Cited source for all entries: the supplement of paper PMC6992640
